# testSettings: human gut metagenome, 24 h, 2 µM; further: call rule not given here
measuredParameter: Bacterial Biotransformation

> print(dat)
                                    molecule             endpointvalue
 1  C[C@@H]1C[C@H]2[C@@H]3CCC4=CC(=O)C=C[C@]4(C)[C@@]3(F)[C@@H](O)C[C@]2(C)[C@@]1(O)C(=O)CO  Compound NOT metabolized
 2               c1ccc([C@H]2CN3CCSC3=N2)cc1      Compound metabolized
 3  Br.CN(C)CCCC1(c2ccc(F)cc2)OCc2cc(C#N)ccc21 (configuration not stated) [CITALOPRAM HYDROBROMIDE]      Compound metabolized
 4  C[C@@H](CO)NC(=O)[C@@H]1C=C2c3cccc4[nH]cc(c34)C[C@H]2N(C)C1.O=C(O)/C=C\C(=O)O [ERGONOVINE MALEATE]      Compound metabolized
 5  CCC1(c2ccc(N)cc2)CCC(=O)NC1=O (configuration not stated) [AMINOGLUTETHIMIDE]  Compound NOT metabolized
 6  CN1CCN(CC/C=C2/c3ccccc3Sc3ccc(S(=O)(=O)N(C)C)cc32)CC1      Compound metabolized
 7  CN(C)CC(c1ccc(O)cc1)C1(O)CCCCC1.O=C(O)CCC(=O)O (configuration not stated) [DESVENLAFAXINE SUCCINATE]  Compound NOT metabolized
 8  CCN(CC)CCOC(=O)C(Cc1cccc2ccccc12)CC1CCCO1.O=C(O)C(=O)O (configuration not stated) [NAFRONYL OXALATE]      Compound metabolized
 9  O=P(O)(O)O.c1ccc(CN(CC2=NCCN2)c2ccccc2)cc1 [ANTAZOLINE PHOSPHATE]      Compound metabolized
10  CC(Oc1c(Cl)cccc1Cl)C1=NCCN1 (configuration not stated)      Compound metabolized
11  CN1CCN(C(=O)O[C@H]2c3nccnc3C(=O)N2c2ccc(Cl)cn2)CC1  Compound NOT metabolized
12  Cc1cn([C@H]2C[C@H](N=[N+]=[N-])[C@@H](CO)O2)c(=O)[nH]c1=O  Compound NOT metabolized
13  CC[C@H](C)C(=O)O[C@H]1C[C@@H](C)C=C2C=C[C@H](C)[C@H](CC[C@@H]3C[C@@H](O)CC(=O)O3)[C@H]21  Compound NOT metabolized
14  NC(=O)N1c2ccccc2CC(=O)c2ccccc21 [OXCARBAZEPINE]  Compound NOT metabolized
15       Cc1cc2c(cc1S(N)(=O)=O)S(=O)(=O)CCC2  Compound NOT metabolized
16  COc1c(C)c2c(c(O)c1C/C=C(\C)CCC(=O)OCCN1CCOCC1)C(=O)OC2 [MYCOPHENOLATE MOFETIL]      Compound metabolized
17  CCN(CC)CC#CCOC(=O)C(O)(c1ccccc1)C1CCCCC1.Cl (configuration not stated) [OXYBUTYNIN CHLORIDE]      Compound metabolized
